System tested: Mouse complex II (Mus musculus, UniProt Q9CQA3+Q9CXV1+Q9CZB0)
Construct: The livers from three 8–10-week-old C57Bl/6 female mice (Charles River) were removed; tissue Charles River (mice); host or cells: crude mitochondria from liver of C57Bl/6 female mice
Sequence (Q9CZB0 30-169): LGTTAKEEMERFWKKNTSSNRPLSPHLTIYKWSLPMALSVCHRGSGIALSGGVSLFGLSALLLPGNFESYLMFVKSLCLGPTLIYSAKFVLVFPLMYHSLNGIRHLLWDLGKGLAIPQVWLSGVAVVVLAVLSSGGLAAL
Sequence (Q9CQA3 31-282): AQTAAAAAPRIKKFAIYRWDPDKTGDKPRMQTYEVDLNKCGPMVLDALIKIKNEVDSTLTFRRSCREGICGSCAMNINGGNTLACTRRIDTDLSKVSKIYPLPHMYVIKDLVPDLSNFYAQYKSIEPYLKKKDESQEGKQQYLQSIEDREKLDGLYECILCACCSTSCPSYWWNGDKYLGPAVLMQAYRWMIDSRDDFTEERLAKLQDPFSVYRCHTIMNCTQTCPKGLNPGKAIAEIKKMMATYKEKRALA
Sequence (Q9CXV1 57-159): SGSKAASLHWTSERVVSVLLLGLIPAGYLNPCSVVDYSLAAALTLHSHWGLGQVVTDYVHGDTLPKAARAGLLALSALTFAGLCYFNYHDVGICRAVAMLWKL
Sequence (Q8K2B3 43-664 partner): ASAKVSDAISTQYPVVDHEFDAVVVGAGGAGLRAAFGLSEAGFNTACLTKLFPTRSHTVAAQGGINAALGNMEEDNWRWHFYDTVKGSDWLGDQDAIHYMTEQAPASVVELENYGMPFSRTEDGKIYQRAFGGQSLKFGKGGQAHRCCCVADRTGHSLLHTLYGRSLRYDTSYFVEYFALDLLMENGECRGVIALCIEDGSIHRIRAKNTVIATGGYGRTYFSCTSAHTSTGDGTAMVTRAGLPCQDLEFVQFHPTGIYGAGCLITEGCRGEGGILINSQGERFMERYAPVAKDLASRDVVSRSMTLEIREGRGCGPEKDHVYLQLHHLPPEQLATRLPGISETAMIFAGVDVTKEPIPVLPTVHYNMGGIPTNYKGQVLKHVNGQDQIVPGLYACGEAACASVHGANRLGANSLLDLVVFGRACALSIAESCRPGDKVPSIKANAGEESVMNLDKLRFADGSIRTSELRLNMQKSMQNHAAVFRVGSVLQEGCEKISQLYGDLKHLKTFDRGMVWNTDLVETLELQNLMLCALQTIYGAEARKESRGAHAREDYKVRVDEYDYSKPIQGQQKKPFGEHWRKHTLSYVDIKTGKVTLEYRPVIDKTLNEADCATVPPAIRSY
Assay notes: Cell-free Complex II functional assay, mouse liver mitochondria
Format: biochemical, M. musculus
Condition info: M. musculus, C57Bl/6 liver mitochondria; read-out: In vitro Complex II IC50
Protocol: The livers from three 8–10-week-old C57Bl/6 female mice (Charles River) were removed, collected in 1.5 ml microcentrifuge tubes, flash frozen in liquid nitrogen and stored at −80 °C until needed. Just before mitochondria isolation, the livers were weighed, placed into a 10-cm petri dish and 10 ml isolation buffer A was added per gram of liver tissue. The tissue was finely minced with a razor blade, transferred to a glass Dounce homogenizer and homogenized by 10 strokes on ice. […]
pIC50: −log10 of the molar value.
pIC50 values for the compounds below.

entry_smiles=CCc1ccc(OCCNC(=O)c2ccccc2I)cc1 experimental_value="< 5.00"

The record that follows has no pIC50 shown yet.
Given item O=C(NCCc1ccc(Cl)cc1)c1ccccc1C(F)(F)F , the value recorded as its pIC50 is < 5.00

---

System tested: C. elegans complex II with SDHC-1(R74K) missense mutation (Caenorhabditis elegans, UniProt O62215+P41956+Q09508+Q09545, R74K)
Sequence (P41956 whole entry R74K, one chain of several): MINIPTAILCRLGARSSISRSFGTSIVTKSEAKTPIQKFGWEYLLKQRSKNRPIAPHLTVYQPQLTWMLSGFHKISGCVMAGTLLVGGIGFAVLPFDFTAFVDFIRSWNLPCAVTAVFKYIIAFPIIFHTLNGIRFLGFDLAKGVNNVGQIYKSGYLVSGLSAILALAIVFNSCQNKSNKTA
Assay notes: Cell-free Complex II functional assay, mitochondria from wact-11-resistant mutants RP2674 and RP2698
Format: biochemical
Condition info: C. elegans, strain RP2698, SDHC R74K; read-out: In vitro Complex II IC50
Observation type: IC50 (mM)
// return numeric value only (unit: mM, not printed)

Item: O=C([O-])CC(=O)[O-].[Na+].[Na+] [Malonate, disodium malonate] | IC50: 4.2

---

System tested: C. elegans complex II with SDHC-1(R74K) missense mutation (Caenorhabditis elegans, UniProt O62215+P41956+Q09508+Q09545, R74K)
Assay notes: Cell-free Complex II functional assay, mitochondria from wact-11-resistant mutants RP2674 and RP2698
Type: biochemical
Observation type: IC50

compound="O=C(NCCc1ccc(Cl)cc1)c1ccccc1C(F)(F)F [wact-11]" observation_type=IC50 experimental_value="> 10 µM"

Entry CCc1ccc(OCCNC(=O)c2ccccc2I)cc1 [wact-12] — recorded IC50 = > 10 µM

---

System tested: Mouse complex II (Mus musculus, UniProt Q9CQA3+Q9CXV1+Q9CZB0)
Construct: The livers from three 8–10-week-old C57Bl/6 female mice (Charles River) were removed; tissue Charles River (mice); host or cells: crude mitochondria from liver of C57Bl/6 female mice
Assay notes: Cell-free Complex II functional assay, mouse liver mitochondria
Format: biochemical, M. musculus
Procedure: The livers from three 8–10-week-old C57Bl/6 female mice (Charles River) were removed, collected in 1.5 ml microcentrifuge tubes, flash frozen in liquid nitrogen and stored at −80 °C until needed. Just before mitochondria isolation, the livers were weighed, placed into a 10-cm petri dish and 10 ml isolation buffer A was added per gram of liver tissue. The tissue was finely minced with a razor blade, transferred to a glass Dounce homogenizer and homogenized by 10 strokes on ice. […]
Observation type: pIC50
Keep it numeric: pIC50 is minus log10 of the concentration in mol/L.

Field pIC50 (entry COc1[nH]c(=O)c(C(=O)[C@@H](C)C[C@H](C)[C@@H](Cl)CCl)c(O)c1OC ) reads 6.23

---

System tested: wild-type C. elegans complex II (Caenorhabditis elegans, UniProt O62215+P41956+Q09508+Q09545)
Sequence (O62215 whole entry): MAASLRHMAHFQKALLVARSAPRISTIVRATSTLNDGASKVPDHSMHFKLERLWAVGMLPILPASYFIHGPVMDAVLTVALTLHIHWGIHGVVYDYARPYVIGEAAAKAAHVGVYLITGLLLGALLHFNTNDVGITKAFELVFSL
Sequence (Q09545 whole entry): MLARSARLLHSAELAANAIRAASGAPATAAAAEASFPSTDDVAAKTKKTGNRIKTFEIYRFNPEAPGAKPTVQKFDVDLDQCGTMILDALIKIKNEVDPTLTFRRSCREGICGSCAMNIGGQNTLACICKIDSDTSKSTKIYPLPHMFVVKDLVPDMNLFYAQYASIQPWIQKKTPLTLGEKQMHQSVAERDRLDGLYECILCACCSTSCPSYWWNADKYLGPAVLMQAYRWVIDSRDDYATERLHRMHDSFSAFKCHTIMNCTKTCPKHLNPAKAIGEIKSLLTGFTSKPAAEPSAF
Sequence (Q09508 32-646): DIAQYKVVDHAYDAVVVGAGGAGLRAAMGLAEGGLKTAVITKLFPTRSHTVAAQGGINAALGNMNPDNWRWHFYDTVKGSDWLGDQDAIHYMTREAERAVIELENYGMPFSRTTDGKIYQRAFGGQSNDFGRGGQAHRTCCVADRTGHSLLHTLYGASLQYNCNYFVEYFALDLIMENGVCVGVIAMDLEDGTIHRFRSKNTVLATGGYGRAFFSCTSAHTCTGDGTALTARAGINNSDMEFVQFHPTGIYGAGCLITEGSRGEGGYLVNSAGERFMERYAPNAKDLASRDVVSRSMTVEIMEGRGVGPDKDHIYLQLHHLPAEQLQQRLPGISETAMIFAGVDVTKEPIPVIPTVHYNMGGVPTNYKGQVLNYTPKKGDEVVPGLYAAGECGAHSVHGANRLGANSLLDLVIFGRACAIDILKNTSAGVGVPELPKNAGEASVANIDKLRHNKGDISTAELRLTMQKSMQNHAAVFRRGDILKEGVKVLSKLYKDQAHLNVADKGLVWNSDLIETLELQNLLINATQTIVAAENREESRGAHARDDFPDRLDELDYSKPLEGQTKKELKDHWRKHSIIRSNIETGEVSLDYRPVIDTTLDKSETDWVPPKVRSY
Sequence (P41956 whole entry): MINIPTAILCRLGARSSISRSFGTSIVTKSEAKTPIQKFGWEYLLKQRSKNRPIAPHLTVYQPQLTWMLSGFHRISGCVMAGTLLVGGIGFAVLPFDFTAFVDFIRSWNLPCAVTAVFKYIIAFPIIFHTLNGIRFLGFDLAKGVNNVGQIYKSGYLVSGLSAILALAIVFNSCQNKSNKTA
Assay notes: biochemical
Format: biochemical
Each item that follows carries a reported IC50.
The answer is to be given in nM; state only the numeric part.

entry_smiles=O=C(NCCc1ccc(Cl)cc1)c1ccccc1C(F)(F)F unit_abbrev=nM experimental_value=7.4
entry_smiles=CCc1ccc(OCCNC(=O)c2ccccc2I)cc1 unit_abbrev=nM experimental_value=5.7
entry_smiles=CC(C)Oc1cccc(NC(=O)c2ccccc2C(F)(F)F)c1 unit_abbrev=nM experimental_value=311

Briefly, IC50 measured for Cc1occc1C(=O)Nc1ccccc1 : 5280

---

System tested: wild-type C. elegans complex II (Caenorhabditis elegans, UniProt O62215+P41956+Q09508+Q09545)
Assay notes: biochemical
Format: biochemical
Condition info: C. elegans, strain N2, SDHC residue change none; read-out: In vitro Complex II IC50
Recorded IC50, one value per entry.
Give a bare numeral; the unit µM is implied.

compound="Cc1ccc(SCCNC(=O)c2ccccc2I)cc1 [wact-12c]" experimental_value=0.133

Next:
Consider O=C([O-])CC(=O)[O-].[Na+].[Na+] [Malonate, disodium malonate] . Its measured IC50 is 4900

---

Examples of compounds with documented IC50 follow.
System tested: wild-type C. elegans complex II (Caenorhabditis elegans, UniProt O62215+P41956+Q09508+Q09545)
Assay notes: biochemical
Assay type: biochemical
Provide the reading as a plain figure in nM.

The reported value for O=C(Nc1ccccc1-c1ccc(Cl)cc1)c1cccnc1Cl in terms of IC50 is 549

Looking up Cc1nc(C(F)(F)F)c(C(=O)Nc2c(Br)cc(OC(F)(F)F)cc2Br)s1 [Thifluzamide] , I see its IC50 listed as 3820

Quick note, IC50 for O=C(NCCc1ncc(C(F)(F)F)cc1Cl)c1ccccc1C(F)(F)F landed at 1.8

// field: IC50; key: O=C(Nc1ccccc1)c1ccccc1I ; value = 186

---

System tested: C. elegans complex II with SDHC-1(R74K) missense mutation (Caenorhabditis elegans, UniProt O62215+P41956+Q09508+Q09545, R74K)
Assay notes: Cell-free Complex II functional assay, mitochondria from wact-11-resistant mutants RP2674 and RP2698
Type: biochemical
Condition info: read-out: In vitro Complex II IC50; C. elegans, strain RP2698, SDHC R74K
pIC50: −log10 of the molar value.
Observation type: pIC50

compound="O=C(NCCc1ccc(Cl)cc1)c1ccccc1C(F)(F)F [wact-11]" experimental_value="< 5.00"

Please examine the following record next.
Entry CCc1ccc(OCCNC(=O)c2ccccc2I)cc1 [wact-12] , pIC50 reported as < 5.00

---

System tested: C. elegans complex II with SDHC-1(R74K) missense mutation (Caenorhabditis elegans, UniProt O62215+P41956+Q09508+Q09545, R74K)
Assay notes: Cell-free Complex II functional assay, mitochondria from wact-11-resistant mutants RP2674 and RP2698
Format: biochemical
Condition info: C. elegans, strain RP2674, SDHC R74K; read-out: In vitro Complex II IC50
Observation type: IC50

Briefly, IC50 measured for O=C([O-])CC(=O)[O-].[Na+].[Na+] [Malonate, disodium malonate] : 4.2 mM
